Test: Cytotoxic Profiling in HEK 293 Cell Line of Diverse Libraries Using Quantitative High-Throughput Screening; also: nearly all actives have a fitted effect of over 60% in size
Settings: HEK 293 viability, ATP luminescence (CellTiter-Glo), 48-72 h; series mostly up to 115 µM
Text: Cell-based phenotypic screening is a commonly used approach to discover biological pathways, novel drug targets, chemical probes and high-quality hit-to-lead molecules. Many hits identified from high-throughput screening campaign are ruled out through a series of follow-up potency, selectivity/specificity, and cytotoxicity assays. […]
Out of some 94,000 compounds screened, about 6,200 (6.6%) were called active. Inconclusive results (about 31%) are left out. Calls follow the shape of the dose curve; as a rule, active = well fitted inhibition curve with a large enough effect; inconclusive = small, poorly fitted or top-dose-only effect; inactive = flat fitted curve, though single readings scatter. For the sample, actives were picked, then their nearest neighbours and some compounds at random.
Hi there, use one of these labels in your reply, thanks! active, inactive

CC(c1cccs1)N(C)Cc1ccncc1 (stereo not given): inactive

Assay result, entry `Cc1nc(C)c(C(=O)N2CCCN(S(=O)(=O)c3ccccc3)CCC(=O)NCC2)s1` — outcome? inactive

Assay result, entry O=C1CCCCC(CNC(=O)c2ccoc2)N1 (stereo not given) — outcome? inactive

Assay result, entry `CNC(=O)[C@@H]1CN(C(=O)c2ccc(F)c(Cl)c2)C[C@H]1CO` — outcome? inactive
